measurement-description: LC-MS/MS urinary metabolic profile of patients receiving warfarin
test-context: patient F84; urine
Reported % R by item:
Expressed in %, but write only the number.

Example cases with answers are listed next.
Lookup: Let me know recorded % R for CC(=O)CC(c1ccccc1)c1c(O)c2cccc(O)c2oc1=O (stereo not shown) [8-OH-WAR, 8-hydroxywarfarin] , thanks.
Found: 100

Lookup: Hello, please tell me recorded % R for this one: CC(=O)CC(c1ccccc1)c1c(O)c2ccc(O)cc2oc1=O (stereo not shown) [7-OH-WAR, 7-hydroxywarfarin]
Found: 80

Lookup: # return recorded % R for input CC(=O)CC(c1ccccc1)c1c(O)c2cc(O)ccc2oc1=O (stereo not shown) [6-OH-WAR, 6-hydroxywarfarin]
Found: 65

Continue with the next molecule.
Lookup: Supply % R value. Item: CC(=O)CC(c1ccc(O)cc1)c1c(O)c2ccccc2oc1=O (stereo not shown) [4′-OH-WAR, 4′-hydroxywarfarin]
Found: 64
